Assay: Dose normalised AUC in rat after po administration
Settings: in vivo
Please note: DNAUC exactly at 600 kg·min/L is Not met. Only values below 600 kg·min/L get Met.

| compound | category.label |
| --- | --- |
| Cc1cnc(NC(=O)C2=C(O)c3ccccc3S(=O)(=O)N2C)s1 | Not met |
| COc1ccc2c(c1)c(CC(=O)O)c(C)n2C(=O)c1ccc(Cl)cc1 | Not met |
| O=C(O)C(Cl)c1ccc(C2CCCCC2)c(Cl)c1 (stereo not given) | Not met |

Query: Please indicate whether the reported DNAUC of CC(C)NCC(O)COc1cccc2ccccc12 (stereo not given) is strictly below 600 kg·min/L.
Response: Met

Query: Dear colleague, could you confirm whether DNAUC of Cn1cc(/C=C2/C(=O)N3C(C(=O)O)=CS[C@H]23)nn1 falls below 600 kg·min/L? Thanks.
Response: Met

Reference for the values: ChEMBL document CHEMBL1614631
